# System: MCF7 breast
# Assay details: NCI-60 one-dose screen, 48 h
# Conditions used: 10 µM unless noted
About 83,000 compounds went through this panel and 20% of them were active in at least one assay; those are over-represented in the sample as a whole. The source made the active and inactive calls. How the source made its calls: active means growth percent below 10; inactive means the rest.
Outcome codes: active, inactive

>  <Compound>
OCC(O)C(O)CC1SCCS1 (stereo not given)

>  <Label>
inactive

$$$$
>  <Compound>
O=C1/C(=C/c2ccc(Cl)cc2)CCC/C1=C\c1ccc(Cl)cc1

>  <Label>
inactive

$$$$
>  <Compound>
Cc1ncc(C(=O)Nc2ccc(CN3CCN(C)CC3)c(C(F)(F)F)c2)cc1C#Cc1cnc(NC2CC2)c2ncccc12

>  <Label>
active

$$$$
>  <Compound>
CCS(=O)(=O)N[C@@H]1O[C@H](COC(C)=O)C(OC(C)=O)[C@H](OC(C)=O)C1OC(C)=O (stereo not given in full)

>  <Label>
inactive

$$$$
>  <Compound>
CCOC(=O)C1CCCN1C(=O)C1(NC(C)=O)CCCC1 (stereo not given)

>  <Label>
inactive

$$$$
>  <Compound>
O=P(OCCCl)(OCCCl)C(O)c1ccccc1Cl (stereo not given)

>  <Label>
inactive

$$$$
>  <Compound>
O=C(NC1CCN(Cc2ccccc2)CC1)c1cc(-c2cccnc2)nc2ccc(Cl)cc12

>  <Label>
inactive

$$$$
>  <Compound>
Cc1ccccc1-n1c(C)nc2cc(NC(=O)c3ccc(Cl)cc3)ccc2c1=O

>  <Label>
inactive

$$$$
>  <Compound>
C=CCN(C)C

>  <Label>
inactive

$$$$
>  <Compound>
COc1ccc(Cn2cc3c(c2)-c2oncc2CC3)cc1OC

>  <Label>
active

$$$$
>  <Compound>
Cc1ccc(C(C)C)c(OCc2ccc(C(=O)N/N=C/c3cccc(O)c3O)cc2)c1

>  <Label>
inactive

$$$$
>  <Compound>
CCOC(=O)c1ccc2n1CCCc1cnc(NC(C)=O)nc1-2

>  <Label>
inactive

$$$$
>  <Compound>
CC(C)(C)c1cc(C[P+](c2ccc(Cl)cc2)(c2ccc(Cl)cc2)c2ccc(Cl)cc2)cc(C(C)(C)C)c1O

>  <Label>
inactive

$$$$
>  <Compound>
COc1cc(-c2nn(-c3ccc(NC(=O)c4ccc(Cl)c(C(F)(F)F)c4)cc3)cc2-c2ccncc2)ccc1Cl

>  <Label>
inactive

$$$$
>  <Compound>
O=C(OCC1CC2(Cl)C(Cl)=C(Cl)C1(Cl)C2(Cl)Cl)C1C(C(=O)OCC2CC3(Cl)C(Cl)=C(Cl)C2(Cl)C3(Cl)Cl)C2(Cl)C(Cl)=C(Cl)C1(Cl)C2(Cl)Cl (stereo not given)

>  <Label>
inactive

$$$$
>  <Compound>
Nc1ccc(S(=O)(=O)Nc2cc(F)cc(F)c2)cc1

>  <Label>
inactive

$$$$
>  <Compound>
O=C(Nc1ccc(-n2cc(-c3ccncc3)c(-c3ccc(Cl)c(O)c3)n2)cc1)c1ccc(Cl)c(Cl)c1

>  <Label>
inactive

$$$$
>  <Compound>
CC(=O)Nc1nc(C)c(C(=O)N/N=C/N2CCOCC2)s1

>  <Label>
inactive

$$$$
>  <Compound>
Cc1ccc(C(=O)Nc2ccc(CN3CCN(C)CC3)c(C(F)(F)F)c2)cc1C#Cc1cnc(N)c2ccc(C#N)cc12

>  <Label>
inactive

$$$$
>  <Compound>
Nc1nc2c(c3ncncc13)C(c1cccc(C(F)(F)F)c1)Cc1ncncc1-2 (stereo not given)

>  <Label>
inactive

$$$$

Taken from PubChem BioAssay (NCI).
